// provenance: patent US7320975B2

Experiment: Lipophilicity parameter log Pow by RP HPLC run time method (OECD test guidelines)
Type: physicochemical
Settings: RP HPLC run time method (OECD test guidelines)
ASSAY READOUT: log Pow

>>> print(df.to_string())
                                smiles_text  assay_readout    result
0  CC(C)Nc1nc(-c2ccccn2)nc(Cl)c1-c1c(F)cccc1F        log Pow  logP 4.1
1   CCNc1nc(-c2ccccn2)nc(Cl)c1-c1ccc(F)cc1C        log Pow  logP 4.1

* * *

Test: Lipophilicity parameter log Pow by RP HPLC run time method (OECD test guidelines)
Assay type: physicochemical
Settings: RP HPLC run time method, OECD test guidelines
ASSAY READOUT: log Pow

>>> print(df.to_string())
                                smiles_text  assay_readout    result
0  CCN(CC)c1nc(-c2ccccn2)nc(Cl)c1-c1c(F)cc(OC)cc1F        log Pow  logP 5.0
1  CC(C)[C@H](C)Nc1nc(-c2ccccn2)nc(Cl)c1-c1c(F)cccc1F        log Pow  logP 5.0
